Target: activated p38α (Homo sapiens)
Sequence (Q16539 whole entry): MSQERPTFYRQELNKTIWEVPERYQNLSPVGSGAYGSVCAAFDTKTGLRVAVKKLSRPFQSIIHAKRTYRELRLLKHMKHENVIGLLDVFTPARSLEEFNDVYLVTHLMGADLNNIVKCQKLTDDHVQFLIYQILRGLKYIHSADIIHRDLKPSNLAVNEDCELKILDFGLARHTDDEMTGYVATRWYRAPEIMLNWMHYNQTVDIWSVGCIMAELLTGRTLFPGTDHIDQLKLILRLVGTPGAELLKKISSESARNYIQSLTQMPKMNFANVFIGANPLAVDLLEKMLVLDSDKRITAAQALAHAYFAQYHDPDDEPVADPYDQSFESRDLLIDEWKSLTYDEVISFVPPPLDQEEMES
Assay: Kinase assay (p38α, ATF2 substrate, ELISA read-out)
Format: biochemical
Settings: Table 2; at 1 μM
MEASURED_PARAMETER: inhibition at 1 µM (%)

{"MOLECULE": "Cn1c(SCC(=O)N(CCO)CCO)nc(-c2ccc(F)cc2)c1-c1ccnc(N)c1", "inhibition at 1 µM (%)": 76}
{"MOLECULE": "CC(=O)Nc1cc(-c2c(-c3ccc(F)cc3)nc(SCC(=O)N(CCO)CCO)n2C)ccn1", "inhibition at 1 µM (%)": 90}
{"MOLECULE": "CCOC(=O)CCSc1nc(-c2ccc(F)cc2)c(-c2ccnc(NC(C)=O)c2)n1C", "inhibition at 1 µM (%)": 83}
{"MOLECULE": "Cn1c(SCCC(=O)O)nc(-c2ccc(F)cc2)c1-c1ccnc(N)c1", "inhibition at 1 µM (%)": 64}
{"MOLECULE": "CC(=O)Nc1cc(-c2c(-c3ccc(F)cc3)nc(SCC(O)CO)n2C)ccn1 (centres unmarked)", "inhibition at 1 µM (%)": 77}

---

Target: activated p38α (Homo sapiens)
Test: Kinase assay (p38α, ATF2 substrate, ELISA read-out)
Format: biochemical
Conditions: Table 1; 100 μM ATP, 10 ng activated p38α; read-out: Kinase assay IC50
MEASURED_PARAMETER: IC50 (µM)

{"COMPOUND": "Cn1c(SCCCC(=O)O)nc(-c2ccc(F)cc2)c1-c1ccncc1", "IC50 (µM)": 5}
{"COMPOUND": "Cn1c(SCCC(=O)NC(CO)(CO)CO)nc(-c2ccc(F)cc2)c1-c1ccncc1", "IC50 (µM)": 12}
{"COMPOUND": "Cn1c(SCC(=O)N2CCCCC2)nc(-c2ccc(F)cc2)c1-c1ccncc1", "IC50 (µM)": 75}
{"COMPOUND": "Cn1c(SCC(=O)O)nc(-c2ccc(F)cc2)c1-c1ccncc1", "IC50 (µM)": 1.6}
{"COMPOUND": "O=C1c2ccccc2C(=O)N1CCCSc1nc(-c2ccc(F)cc2)c(-c2ccncc2)[nH]1 [Example 25d]", "IC50 (µM)": 5.5}
{"COMPOUND": "CC(=O)C(Sc1nc(-c2ccc(F)cc2)c(-c2ccncc2)n1C)C(C)=O", "IC50 (µM)": 9.5}
{"COMPOUND": "COC(=O)/C=C/CSc1nc(-c2ccc(F)cc2)c(-c2ccncc2)n1C", "IC50 (µM)": 42}
{"COMPOUND": "CCOC(=O)CSc1nc(-c2ccc(F)cc2)c(-c2ccncc2)[nH]1 [Example 25e]", "IC50 (µM)": 0.975}

1: Cn1c(SCC(=O)NC(CO)(CO)CO)nc(-c2ccc(F)cc2)c1-c1ccncc1
2: Cn1c(SCCCCl)nc(-c2ccc(F)cc2)c1-c1ccncc1
3: CCOC(=O)C(=O)CSc1nc(-c2ccc(F)cc2)c(-c2ccncc2)n1C
4: Cn1c(SCCC(=O)N(CCO)CCO)nc(-c2ccc(F)cc2)c1-c1ccncc1
5: Cn1c(SCC(=O)N(CCO)CCO)nc(-c2ccc(F)cc2)c1-c1ccncc1
Sort by IC50, descending. Please list each label once, in the requested order. 4, 3, 2, 1, 5
(4: 30 µM, 3: 7 µM, 2: 3.4 µM, 1: 0.8 µM, 5: 0.41 µM)

a: COC(=O)CSc1nc(-c2ccc(F)cc2)c(-c2ccncc2)[nH]1 [Example 25c]
b: Cn1c(SCC(=O)N2CCOCC2)nc(-c2ccc(F)cc2)c1-c1ccncc1
Hello, I am sorting some records. Could you say if a or b has the smaller IC50 value? API: response body contains the label of the selected item. a
